STUDY_SYSTEM: T1, Human latent myostatin (human, UniProt O14793 25-266; O14793 267-375)
T1 construct: Biotinylated in the ELISAs; also called human myostatin latent form
T1 sequence 1: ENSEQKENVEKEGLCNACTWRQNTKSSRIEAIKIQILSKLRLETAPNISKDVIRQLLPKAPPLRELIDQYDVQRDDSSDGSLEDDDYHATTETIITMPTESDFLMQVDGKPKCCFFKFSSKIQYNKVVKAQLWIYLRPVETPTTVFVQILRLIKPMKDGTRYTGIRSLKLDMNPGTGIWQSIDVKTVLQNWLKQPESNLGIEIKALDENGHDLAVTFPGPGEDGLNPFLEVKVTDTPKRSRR
T1 sequence 2: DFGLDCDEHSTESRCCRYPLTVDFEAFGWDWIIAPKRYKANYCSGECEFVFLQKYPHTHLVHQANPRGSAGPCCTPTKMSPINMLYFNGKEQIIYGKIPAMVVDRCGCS
TEST_DESCRIPTION: SPR (BIACORE T200), 37 C, pH7.4, avidity condition (capture 185 RU), 1:1 fit; pH 7.4
Attribute: pKd
// pKd here means minus log10 of the molar concentration (mol/L)

# annotated cases, reported pKd shown
BINDER	MEASURED_ENDPOINT	ASSAY_RESULT
MS_M103205H781-SG1/M103202L719-SK1 (antibody, human IgG1, kappa, V domains shown, also called MS1032LO02-SG1; MSLO-02) VH: QVTLKESGPVLVKPTETLTLTCTVSGIDLSHTDISWVRQAPGKGLEWVGIISYAGSTYYMSWAKGRLTISKDTSKNQVVLTMTNMDPVDTATYYCARGVPAYSHGGDLWGQGTLVTVSS VL: DIVMTQSPATLSLSPGERATLSCQSSQSVYHNNWLSWFQQKPGQPPKLLIYWASTLAFGVPSRFSGSGSGTDFTLTISSLQPEDAATYYCAGGYGGGLYAFGQGTKVEIKR	pKd	9.53
MS_M103205H000-SG1/M103202LO00-SK1 (antibody, human IgG1, kappa, V domains shown, Humanized MST1032, not pH-dependent; also called MS1032LO00-SG1; Ab001) VH: QVTLKESGPVLVKPTETLTLTCTVSGIDLSSYDISWVRQAPGKGLEWVGIISYAGSTYYASWAKGRLTISKDTSKNQVVLTMTNMDPVDTATYYCARGVPAYSTGGDLWGQGTLVTVSS VL: DIVMTQSPATLSLSPGERATLSCQSSQSVYDNNWLSWFQQKPGQPPKLLIYWASTLASGVPSRFSGSGSGTDFTLTISSLQPEDAATYYCAGGYGGGLYAFGQGTKVEIKR	pKd	10.12
MS_M103205H714-SG1/M103202L861-SK1 (antibody, human IgG1, kappa, V domains shown, also called MS1032LO01-SG1; MSLO-01) VH: QVTLKESGPVLVKPTETLTLTCTVSGIDLSHTDISWVRQAPGKGLEWVGIISYAGSTYYASWAKGRLTISKDTSKNQVVLTMTNMDPVDTATYYCARGVPAYSHGGDLWGQGTLVTVSS VL: DIVMTQSPATLSLSPGERATLSCTSSQSVYHNNWLSWFQQKPGQPPKLLIYWASTLAYGVPSRFSGSGSGTDFTLTISSLQPEDAATYYCAGGYGGGRYAFGQGTKVEIKR	pKd	9.77

Attention now turns to another entry.
-- ask Reported pKd, binder MS_M103205H707-SG1/M103202L802-SK1 (antibody, human IgG1, kappa, V domains shown, also called MS1032LO04-SG1; MSLO-04) VH: QVTLKESGPVLVKPTETLTLTCTVSGIDLSHYDISWVRQAPGKGLEWVGIISYAGSTYYASWAKGRLTISKDTSKNQVVLTMTNMDPVDTATYYCARGVPAYSHGGDLWGQGTLVTVSS VL: DIVMTQSPATLSLSPGERATLSCTSSQSVYHDNWLSWFQQKPGQPPKLLIYWASTLAYGVPSRFSGSGSGTDFTLTISSLQPEDAATYYCAGGYGGGLYAFGQGTKVEIKR : ____
-- reply 9.79

The reported numbers originate from patent US20200317768A1.
